target: human mPGES1 (Homo sapiens (Human), UniProt O14684)
Sequence (O14684 whole entry): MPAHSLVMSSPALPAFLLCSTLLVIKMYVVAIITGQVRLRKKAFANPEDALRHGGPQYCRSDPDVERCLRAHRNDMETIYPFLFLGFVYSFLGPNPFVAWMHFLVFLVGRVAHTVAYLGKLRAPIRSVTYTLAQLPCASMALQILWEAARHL
value kind: IC50 (nM)
One number for each entry, in nM.

molecule	value kind	reported measurement
CCn1c(-c2ccc(Cl)cc2)cc2cc(NC(=O)c3cc(CNC(=O)C(C)C)cnc3C(F)F)ccc21	IC50	11.2
Cn1c(-c2ccc(F)cc2)cc2cc(NC(=O)c3cc(CNC(=O)C4(C(F)(F)F)CC4)ccc3Cl)ccc21	IC50	7.75

Lab note: each molecule below needs its IC50 filled in.
1. Cn1c(-c2cccc(Cl)c2)cc2cc(NC(=O)c3cc(CNC(=O)C(C)(C)F)cnc3C(F)F)ncc21
2. CC(C)(C)C(=O)NCc1ccc(Cl)c(C(=O)Nc2ccc3c(c2)CN(c2ccc(C(F)(F)F)cc2)C3)c1
3. CC(C)C(=O)NCc1cnc(C(F)F)c(C(=O)Nc2ccc3oc(-c4ccc(C(F)(F)F)cc4)nc3c2)c1
4. CCn1c(-c2cccc(Cl)c2)cc2nc(NC(=O)c3cc(CNC(=O)C(C)(C)F)cnc3C(F)F)ccc21
5. CC(C)C(=O)NCc1cnc(C(F)F)c(C(=O)Nc2ccc3nn(-c4ccc(C(F)(F)F)cc4)cc3c2)c1
6. CC(C)C(=O)NCc1cnc(C(F)F)c(C(=O)Nc2ccc3oc(-c4ccc(C(F)(F)F)cc4)cc3c2)c1
7. CC(C)(F)C(=O)NCc1cnc(C(F)F)c(C(=O)Nc2ccc3c(c2)C(=O)N(c2cccc(C(F)(F)F)c2)C3)c1
8. CCn1c(-c2ccc(F)cc2)cc2cc(NC(=O)c3cc(CNC(=O)C(C)(C)C)ccc3Cl)ccc21

Given back:
[4.19, 11.9, 5.43, 6.46, 17.2, 3.68, 1.18, 3.88]

Need IC50 for each of these molecules.
1. CC(C)(C)C(=O)NCc1ccc(Cl)c(C(=O)Nc2ccc3c(c2)C(=O)N(c2ccc(Cl)cc2)C3)c1
2. CC(C)C(=O)NCc1cnc(C(F)F)c(C(=O)Nc2ccc3oc(-c4ccc(Cl)cc4)nc3c2)c1
3. CC1(C(=O)NCc2cnc(C(F)F)c(C(=O)Nc3ccc4oc(-c5ccc(C(F)(F)F)cc5)nc4c3)c2)CC1
4. CCn1c(-c2ccccc2Cl)cc2cc(NC(=O)c3cc(CNC(=O)C(C)(C)F)cnc3C(F)F)ccc21
5. CC(C)(F)C(=O)NCc1cnc(C(F)F)c(C(=O)Nc2ccc3oc(-c4cccc(C(F)(F)F)c4)cc3c2)c1
6. CC(C)(C)C(=O)NCc1ccc(Cl)c(C(=O)Nc2ccc3oc(-c4ccc(C(F)(F)F)cc4)nc3c2)c1
7. CCn1c(-c2ccc(C(F)(F)F)cc2)cc2cc(NC(=O)c3cc(CNC(=O)C(C)C)cnc3C(F)F)ccc21
8. CC(C)(F)C(=O)NCc1cnc(C(F)F)c(C(=O)Nc2ccc3oc(-c4cccc(C(F)(F)F)c4)nc3c2)c1

Given back:
6.75
49.4
16
8.12
3.58
6.69
8.26
7.74

Go through the items and report each one's IC50.
1. CC(C)C(=O)NCc1cnc(C(F)F)c(C(=O)Nc2ccc3c(c2)CN(c2ccc(C(F)(F)F)cc2)C3)c1
2. Cn1c(-c2ccc(F)cc2)cc2cc(NC(=O)c3cc(CNC(=O)C(C)(C)C)ccc3Cl)ccc21
3. Cn1c(-c2ccc(C(F)(F)F)cc2)cc2cc(NC(=O)c3cc(CNC(=O)C(C)(C)F)cnc3C(F)F)ccc21

Given back:
1: 22.4; 2: 5.14; 3: 23.4

Respectfully, I request IC50 for each entry included below.
1. Cn1c(-c2ccc(Cl)cc2)cc2cc(NC(=O)c3cc(CNC(=O)C4(C(F)(F)F)CC4)cnc3C(F)F)ccc21
2. CCn1c(-c2ccc(C(F)(F)F)cc2)cc2cc(NC(=O)c3cc(CNC(=O)C(C)(C)F)cnc3C(F)F)ccc21

Given back:
8.24
2.68

# batch: return IC50 for each of the 2 molecules below
1. CC(C)C(=O)NCc1cnc(C(F)F)c(C(=O)Nc2ccc3c(c2)cc(-c2ccc(Cl)cc2)n3C)c1
2. Cn1c(-c2cccc(Cl)c2)cc2cc(NC(=O)c3cc(CNC(=O)C(C)(C)F)cnc3C(F)F)ccc21

Given back:
7.43
5.33

Please go through the list and note IC50 for each molecule.
1. CC(C)(C)C(=O)NCc1ccc(Cl)c(C(=O)Nc2ccc3c(c2)C(=O)N(c2ccc(C(F)(F)F)cc2)C3)c1
2. Cn1c(-c2ccc(Cl)cc2)cc2cc(NC(=O)c3cc(CNC(=O)C(C)(C)F)cnc3C(F)F)ccc21 [Example 14]
3. CC(C)C(=O)NCc1cnc(C(F)F)c(C(=O)Nc2ccc3nc(-c4ccc(C(F)(F)F)cc4)sc3c2)c1
4. CC(C)(F)C(=O)NCc1cnc(C(F)F)c(C(=O)Nc2ccc3c(c2)CN(c2ccc(C(F)(F)F)cc2)C3)c1

Given back:
1: 8.51; 2: 4.59; 3: 47.1; 4: 3.38

###

Record form. Attribute: CL/F. Fill in for each entry.
experiment: Pharmacokinetics assay in rats; format: in vivo; details: both sexes, Sprague-Dawley, rat, plasma, po; SD rats, intragastric, 5 mg/kg; read-out: Clearance CLz/F
Numbers only, in mL/min/kg.

Recorded CL/F, per entry:
compound	units symbol	CL/F
Cn1c(-c2ccc(F)cc2)cc2cc(NC(=O)c3cc(CNC(=O)C(C)(C)C)ccc3Cl)ccc21 [Example 11]	mL/min/kg	19.2
CCn1c(-c2ccc(C(F)(F)F)cc2)cc2cc(NC(=O)c3cc(CNC(=O)C(C)(C)F)cnc3C(F)F)ccc21 [Example 17]	mL/min/kg	45.3
CC(C)(F)C(=O)NCc1cnc(C(F)F)c(C(=O)Nc2ccc3oc(-c4cccc(C(F)(F)F)c4)cc3c2)c1 [Example 48]	mL/min/kg	41
CCn1c(-c2cccc(Cl)c2)cc2nc(NC(=O)c3cc(CNC(=O)C(C)(C)F)cnc3C(F)F)ccc21 [Example 37]	mL/min/kg	5.44
Cn1c(-c2cccc(Cl)c2)cc2cc(NC(=O)c3cc(CNC(=O)C(C)(C)F)cnc3C(F)F)ncc21 [Example 36]	mL/min/kg	30.4

Report CL/F for every entry below.
1. COCCn1c(-c2ccc(C(F)(F)F)cc2)cc2cc(NC(=O)c3cc(CNC(=O)C(C)(C)F)cnc3C(F)F)ccc21 [Example 27]
2. CCn1c(-c2cccc(Cl)c2)cc2cc(NC(=O)c3cc(CNC(=O)C(C)(C)F)cnc3C(F)F)ccc21 [Example 20]
3. CCn1c(-c2ccc(F)cc2)cc2cc(NC(=O)c3cc(CNC(=O)C(C)(C)C)ccc3Cl)ccc21 [Example 8]
4. Cn1c(-c2ccc(Cl)cc2)cc2cc(NC(=O)c3cc(CNC(=O)C(C)(C)F)cnc3C(F)F)ccc21 [Example 14]

Given back:
1. 73.3
2. 10.7
3. 32.7
4. 56.7

Asked: State the recorded CL/F for this entry: Cn1c(-c2cccc(Cl)c2)cc2nc(NC(=O)c3cc(CNC(=O)C(C)(C)F)cnc3C(F)F)ccc21 [Example 35]
Given back: 4.69
